Test system: Tilletia tritici
Experiment: Seed dressing test against wheat bunt (Tilletia tritici)
Type: in vivo
Details: Tilletia caries, read-out: % effectiveness (percentage germination inhibition)
Protocol: Healthy wheat seed is uniformly infected with spores of Tilletia tritici.The infected seed is subsequently dressed carefully with the active substances according to the invention, prepared in the form of dry dressings. […] After incubation for a further eight days at from 14° to 17° C. in the drying cupboard, the ratio of germinated and ungerminated spores as, compared with an untreated control, is determined under a binocular microscope. […]
Assignment: determine reported inhibition at 100 ppm for the given compounds.
Please respond with the number in % and leave the unit unwritten.

Observed inhibition at 100 ppm, Tilletia tritici, COCC1CC(=O)N(c2cccc(Cl)c2)C1=O (stereo not shown) : 80

Simply: O=C1CC(C2C=CCCC2)C(=O)N1c1cc(Cl)cc(Cl)c1 (stereo not shown) [reference compound] , Tilletia tritici, inhibition at 100 ppm = 0

Tested system Tilletia tritici; inhibition at 100 ppm recorded for C=CCOC1CC(=O)N(c2cc(Cl)cc(Cl)c2)C1=O (stereo not shown) was 100

// compound CCC=CCSC1CC(=O)N(c2cc(Cl)cc(Cl)c2)C1=O (stereo not shown) [reference compound] , assay Tilletia tritici, inhibition at 100 ppm value: 40

Tilletia tritici assay, compound CCC(C)N1C(=O)CC(COC)C1=O (stereo not shown) , recorded inhibition at 100 ppm = 80

Considering CC(C)NC(=O)N1CC(=O)N(c2cc(Cl)cc(Cl)c2)C1=O [Rovral, reference compound] , its inhibition at 100 ppm with Tilletia tritici was recorded as 75

Known value: Tilletia tritici inhibition at 100 ppm of the compound CCOC1CC(=O)N(c2cc(Cl)cc(Cl)c2)C1=O (stereo not shown) equals 90

Entry CC(C)OC1CC(=O)N(c2cc(Cl)cc(Cl)c2)C1=O (stereo not shown) under Tilletia tritici had inhibition at 100 ppm of 100

inhibition at 100 ppm for Tilletia tritici with input CCCc1ccc(N2C(=O)CC(OC)C2=O)cc1 (stereo not shown) equals 80

Item: C=CCN1C(=O)CC(OC(=O)C(C)C)C1=O (stereo not shown) [2-isobutyroxysuccinic acid N--allylimide, 2-isobutyroxysuccinic acid N-allylimide] | System: Tilletia tritici | inhibition at 100 ppm: 80

Hey, Tilletia tritici data for COCC1CC(=O)N(c2cc(Cl)cc(Cl)c2)C1=O (stereo not shown) : inhibition at 100 ppm came out at 100

Bench note, Tilletia tritici: CC(=O)OC1CC(=O)N(c2cc(Cl)cc(Cl)c2)C1=O (stereo not shown) , inhibition at 100 ppm reads 100

Field inhibition at 100 ppm (system: Tilletia tritici) for entry COC1CC(=O)N(c2cc(Cl)cc(Cl)c2)C1=O (stereo not shown) = 95

* * *

System: Fusarium nivale
Assay: Spore germination test, Fusarium nivale
Format: cell-based
Conditions: Microdochium nivale; 500 ppm active substance; 48 hours at 20° C.; vs untreated control; read-out: Fungitoxicity against fungi spore, Fusarium nivale (effectiveness)
Please go through the items and note down their inhibition of growth at 500 ppm.
Answer format: numeric, % implied, no suffix.

The recorded inhibition of growth at 500 ppm for entry O=C1CC(C2C=CCCC2)C(=O)N1c1cc(Cl)cc(Cl)c1 (centres unmarked) [reference compound] equals 0

So, COCC1CC(=O)N(c2cc(Cl)cc(Cl)c2)C1=O (centres unmarked) ? Its inhibition of growth at 500 ppm was 100

Measured inhibition of growth at 500 ppm of CCOC1CC(=O)N(c2cc(Cl)cc(Cl)c2)C1=O (centres unmarked) : 80

Record COC1CC(=O)N(c2cc(Cl)cc(Cl)c2)C1=O (centres unmarked) , field inhibition of growth at 500 ppm: 90

Record summary for CC(C)NC(=O)N1CC(=O)N(c2cc(Cl)cc(Cl)c2)C1=O [Rovral, reference compound] : reported inhibition of growth at 500 ppm = 0
